# System: KRAS-mutant PDC tumor spheroid with HUVEC/MSC, viability
# Assay details: Anticancer human tumor 327498-153-R-J2-PDC patient-derived uterine carcinosarcoma cell line growth inhibition [KRAS2]
# Test conditions: curve of first compound; second compound 3.16 µM
Measurement label: IC50

# annotated cases, reported IC50 shown
CC1(C)CCC(CN2CCN(c3ccc(C(=O)NS(=O)(=O)c4ccc(NCC5CCOCC5)c([N+](=O)[O-])c4)c(Oc4cnc5[nH]ccc5c4)c3)CC2)=C(c2ccc(Cl)cc2)C1 + CNCc1ccccc1-c1csc(C(C)Nc2nc(C)nc3cc(OC)c(OC)cc23)c1: < 0.0316 µM
CC(C)NCC(C(=O)N1CCN(c2ncnc3c2C(C)CC3O)CC1)c1ccc(Cl)cc1 (stereo not given) + C=CC(=O)N1CCN(c2nc(=O)n(-c3c(C)ccnc3C(C)C)c3nc(-c4c(O)cccc4F)c(F)cc23)C(C)C1: < 0.0316 µM

Which value of IC50 has been reported for CN(C)C/C=C/C(=O)Nc1cc2c(Nc3ccc(F)c(Cl)c3)ncnc2cc1O[C@H]1CCOC1 + C=CC(=O)N1CCN(c2nc(=O)n(-c3c(C)ccnc3C(C)C)c3nc(-c4c(O)cccc4F)c(F)cc23)C(C)C1 in the records?
> 0.1 µM

Which value of IC50 has been reported for CC(C)NCC(C(=O)N1CCN(c2ncnc3c2C(C)CC3O)CC1)c1ccc(Cl)cc1 (stereo not given) + CNCc1ccccc1-c1csc(C(C)Nc2nc(C)nc3cc(OC)c(OC)cc23)c1 in the records?
< 0.0316 µM

Which value of IC50 has been reported for CC(=O)OC12COC1CC(O)C1(C)C(=O)C(O)C3=C(C)C(OC(=O)C(O)C(NC(=O)OC(C)(C)C)c4ccccc4)CC(O)(C(OC(=O)c4ccccc4)C21)C3(C)C (stereo not given) + CC1OCC2(CCN(c3cnc(Sc4ccnc(N)c4Cl)c(N)n3)CC2)C1N in the records?
< 0.01 µM

----------
# System: KRAS-mutant PDC tumor spheroid with HUVEC/MSC, viability
# Assay details: Anticancer human tumor 327498-153-R-J2-PDC cell line growth inhibition [KRAS2];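 further: spheroids exposed to agents for seven days before reading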
# Test conditions: curve of first compound; second compound 0.316 µM
Measurement label: IC50 (nM)
Write the answer as a number in nM, unit excluded.

CC1(C)CCC(CN2CCN(c3ccc(C(=O)NS(=O)(=O)c4ccc(NCC5CCOCC5)c([N+](=O)[O-])c4)c(Oc4cnc5[nH]ccc5c4)c3)CC2)=C(c2ccc(Cl)cc2)C1 + COc1cc2nc(C)nc(NC(C)c3cc(N)cc(C(F)(F)F)c3)c2cc1OC1CCOC1: 2270
Cn1nccc1Nc1nccc(-c2cc3c(s2)C(C)(C)N(CCN2CCOCC2)C3=O)n1 + CC1OCC2(CCN(c3cnc(Sc4ccnc(N)c4Cl)c(N)n3)CC2)C1N: 61.1

// lookup IC50 | system=KRAS-mutant PDC tumor spheroid with HUVEC/MSC, viability | key= CC1COCCN1c1cc(-c2ccnn2C)c2ccnc(-c3ccn[nH]3)c2n1 (stereo not given) + CNCc1ccccc1-c1csc(C(C)Nc2nc(C)nc3cc(OC)c(OC)cc23)c1
17.9

// lookup IC50 | system=KRAS-mutant PDC tumor spheroid with HUVEC/MSC, viability | key= CC(=O)Nc1cccc(-n2c(=O)n(C3CC3)c(=O)c3c(Nc4ccc(I)cc4F)n(C)c(=O)c(C)c32)c1 + C=CC(=O)N1CCN(c2nc(=O)n(-c3c(C)ccnc3C(C)C)c3nc(-c4c(O)cccc4F)c(F)cc23)C(C)C1
3.57

// lookup IC50 | system=KRAS-mutant PDC tumor spheroid with HUVEC/MSC, viability | key= CC1OCC2(CCN(c3cnc(Sc4ccnc(N)c4Cl)c(N)n3)CC2)C1N (stereo not given) + CNCc1ccccc1-c1csc(C(C)Nc2nc(C)nc3cc(OC)c(OC)cc23)c1
109

----------
# Tested on: KRAS-mutant PDC tumor spheroid with HUVEC/MSC, viability
# Assay details: Anticancer human tumor 327498-153-R-J2-PDC cell line growth inhibition [KRAS2];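 further: spheroids exposed to agents for seven days before reading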;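 on viability, T/C: 100% = DMSO vehicle wells so lower means fewer viable cells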
# Test conditions: second compound 3.16 µM; first compound 0.0316 µM; stronger effect = lower value
# Text: Multicellular complex tumor spheroid response to RAS pathway inhibitors in combination with a targeted agents in patient-derived cell lines with oncogenic KRAS variants from multiple cancer types A high-throughput screen of multi-cell type tumor spheroids was designed to identify active combinations of targeted small molecules and KRAS pathway inhibitors. […] Compounds. […] If the clinical Cmax for an agent had not been determined, the highest concentration tested was 10 microM. […]
In this section we review reported viability, T/C values for a set of compounds.
Write the answer as a number in %, unit excluded.

CN(C)C/C=C/C(=O)Nc1cc2c(Nc3ccc(F)c(Cl)c3)ncnc2cc1O[C@H]1CCOC1 + COc1cc2nc(C)nc(NC(C)c3cc(N)cc(C(F)(F)F)c3)c2cc1OC1CCOC1: 49.9

Which value of viability, T/C has been reported for CN(C)C/C=C/C(=O)Nc1cc2c(Nc3ccc(F)c(Cl)c3)ncnc2cc1O[C@H]1CCOC1 + C=CC(=O)N1CCN(c2nc(OCC3CCCN3C)nc3c2CCN(c2cccc4cccc(C)c24)C3)CC1CC#N in the records?
0.49

Which value of viability, T/C has been reported for CC(C)NCC(C(=O)N1CCN(c2ncnc3c2C(C)CC3O)CC1)c1ccc(Cl)cc1 (stereo unspecified) + COc1cc2nc(C)nc(NC(C)c3cc(N)cc(C(F)(F)F)c3)c2cc1OC1CCOC1 in the records?
54.4

Which value of viability, T/C has been reported for COC(=O)c1ccc2c(C(=Nc3ccc(N(C)C(=O)CN4CCN(C)CC4)cc3)c3ccccc3)c(O)[nH]c2c1 + CC1OCC2(CCN(c3cnc(Sc4ccnc(N)c4Cl)c(N)n3)CC2)C1N in the records?
36

----------
# Tested on: KRAS-mutant PDC tumor spheroid with HUVEC/MSC, viability
# Assay details: Anticancer human tumor 327498-153-R-J2-PDC cell line growth inhibition [KRAS2];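 further: spheroids exposed to agents for seven days before reading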;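 on viability, T/C: 100% = DMSO vehicle wells so lower means fewer viable cells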
# Test conditions: second compound 10 µM; first compound 0.1 µM; stronger effect = lower value
In this section we review reported viability, T/C values for a set of molecules.
Write the answer as a number in %, unit excluded.

CC1OCC2(CCN(c3cnc(Sc4ccnc(N)c4Cl)c(N)n3)CC2)C1N (stereo not drawn) + CNCc1ccccc1-c1csc(C(C)Nc2nc(C)nc3cc(OC)c(OC)cc23)c1: 0.18
CC(C)n1nc(-c2ccc3oc(N)nc3c2)c2c(N)ncnc21 + C=CC(=O)N1CCN(c2nc(=O)n(-c3c(C)ccnc3C(C)C)c3nc(-c4c(O)cccc4F)c(F)cc23)C(C)C1: 5.69

Query molecule follows.
Which value of viability, T/C has been reported for COc1cc2nccc(Oc3ccc(NC(=O)C4(C(=O)Nc5ccc(F)cc5)CC4)cc3)c2cc1OC + CNCc1ccccc1-c1csc(C(C)Nc2nc(C)nc3cc(OC)c(OC)cc23)c1 in the records?
0.11

----------
# System: KRAS-mutant PDC tumor spheroid with HUVEC/MSC, viability
# Assay details: Anticancer human tumor 327498-153-R-J2-PDC cell line growth inhibition [KRAS2];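 further: spheroids exposed to agents for seven days before reading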;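 on viability, T/C: 100% = DMSO vehicle wells so lower means fewer viable cells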
# Test conditions: second compound 0.316 µM; first compound 0.01 µM; stronger effect = lower value
Measurement label: viability, T/C

# annotated cases, reported viability, T/C shown
CN(C)C/C=C/C(=O)Nc1cc2c(Nc3ccc(F)c(Cl)c3)ncnc2cc1O[C@H]1CCOC1 + CC1OCC2(CCN(c3cnc(Sc4ccnc(N)c4Cl)c(N)n3)CC2)C1N: 53.1%
CCN1CCN(Cc2ccc(Nc3ncc(F)c(-c4cc(F)c5nc(C)n(C(C)C)c5c4)n3)nc2)CC1 + CC1OCC2(CCN(c3cnc(Sc4ccnc(N)c4Cl)c(N)n3)CC2)C1N: 31.6%
CCN1CCN(Cc2ccc(Nc3ncc(F)c(-c4cc(F)c5nc(C)n(C(C)C)c5c4)n3)nc2)CC1 + C=CC(=O)N1CCN(c2nc(OCC3CCCN3C)nc3c2CCN(c2cccc4cccc(C)c24)C3)CC1CC#N: 33.1%
CC(C)n1nc(-c2ccc3oc(N)nc3c2)c2c(N)ncnc21 + COc1cc2nc(C)nc(NC(C)c3cc(N)cc(C(F)(F)F)c3)c2cc1OC1CCOC1: 23.3%

Query compound follows.
Which value of viability, T/C has been reported for CCN1CCN(Cc2ccc(Nc3ncc(F)c(-c4cc(F)c5nc(C)n(C(C)C)c5c4)n3)nc2)CC1 + COc1cc2nc(C)nc(NC(C)c3cc(N)cc(C(F)(F)F)c3)c2cc1OC1CCOC1 in the records?
48%

----------
# Tested on: KRAS-mutant PDC tumor spheroid with HUVEC/MSC, viability
# Assay details: Anticancer human tumor 327498-153-R-J2-PDC cell line growth inhibition [KRAS2];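 further: spheroids exposed to agents for seven days before reading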;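 on viability, T/C: 100% = DMSO vehicle wells so lower means fewer viable cells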
# Test conditions: second compound 0.0316 µM; first compound 3.16 µM; stronger effect = lower value
Measurement label: viability, T/C (%)
Write the answer as a number in %, unit excluded.

# annotated cases, reported viability, T/C shown
COc1cc2nccc(Oc3ccc(NC(=O)C4(C(=O)Nc5ccc(F)cc5)CC4)cc3)c2cc1OC + C=CC(=O)N1CCN(c2nc(OCC3CCCN3C)nc3c2CCN(c2cccc4cccc(C)c24)C3)CC1CC#N: 18.4
CC1(C)CCC(CN2CCN(c3ccc(C(=O)NS(=O)(=O)c4ccc(NCC5CCOCC5)c([N+](=O)[O-])c4)c(Oc4cnc5[nH]ccc5c4)c3)CC2)=C(c2ccc(Cl)cc2)C1 + C=CC(=O)N1CCN(c2nc(OCC3CCCN3C)nc3c2CCN(c2cccc4cccc(C)c24)C3)CC1CC#N: 40.2
CCNC(=O)CC1N=C(c2ccc(Cl)cc2)c2cc(OC)ccc2-n2c(C)nnc21 (stereo unspecified) + C=CC(=O)N1CCN(c2nc(OCC3CCCN3C)nc3c2CCN(c2cccc4cccc(C)c24)C3)CC1CC#N: 36.5
O=C(c1cc(Cc2n[nH]c(=O)c3ccccc23)ccc1F)N1CCN(C(=O)C2CC2)CC1 + C=CC(=O)N1CCN(c2nc(OCC3CCCN3C)nc3c2CCN(c2cccc4cccc(C)c24)C3)CC1CC#N: 26.2
CC1OCC2(CCN(c3cnc(Sc4ccnc(N)c4Cl)c(N)n3)CC2)C1N (stereo unspecified) + C=CC(=O)N1CCN(c2nc(OCC3CCCN3C)nc3c2CCN(c2cccc4cccc(C)c24)C3)CC1CC#N: 19.6
COc1cc(Nc2ncc3c(n2)-c2ccc(Cl)cc2C(c2c(F)cccc2OC)=NC3)ccc1C(=O)O + C=CC(=O)N1CCN(c2nc(OCC3CCCN3C)nc3c2CCN(c2cccc4cccc(C)c24)C3)CC1CC#N: 11.3
CC(C)NCC(C(=O)N1CCN(c2ncnc3c2C(C)CC3O)CC1)c1ccc(Cl)cc1 (stereo unspecified) + C=CC(=O)N1CCN(c2nc(OCC3CCCN3C)nc3c2CCN(c2cccc4cccc(C)c24)C3)CC1CC#N: 15.5
CC1COCCN1c1cc(-c2ccnn2C)c2ccnc(-c3ccn[nH]3)c2n1 (stereo unspecified) + C=CC(=O)N1CCN(c2nc(OCC3CCCN3C)nc3c2CCN(c2cccc4cccc(C)c24)C3)CC1CC#N: 5.16
COC(=O)c1ccc2c(C(=Nc3ccc(N(C)C(=O)CN4CCN(C)CC4)cc3)c3ccccc3)c(O)[nH]c2c1 + C=CC(=O)N1CCN(c2nc(OCC3CCCN3C)nc3c2CCN(c2cccc4cccc(C)c24)C3)CC1CC#N: 8.28
Cn1nccc1Nc1nccc(-c2cc3c(s2)C(C)(C)N(CCN2CCOCC2)C3=O)n1 + C=CC(=O)N1CCN(c2nc(OCC3CCCN3C)nc3c2CCN(c2cccc4cccc(C)c24)C3)CC1CC#N: 40.4

Which value of viability, T/C has been reported for CC(=O)OC12COC1CC(O)C1(C)C(=O)C(O)C3=C(C)C(OC(=O)C(O)C(NC(=O)OC(C)(C)C)c4ccccc4)CC(O)(C(OC(=O)c4ccccc4)C21)C3(C)C (stereo unspecified) + C=CC(=O)N1CCN(c2nc(OCC3CCCN3C)nc3c2CCN(c2cccc4cccc(C)c24)C3)CC1CC#N in the records?
10.1

Where do these numbers come from? They come from PubChem BioAssay AID1963867.
